- Target: HLA-A*11:01
- Measurement protocol: IEDB peptide-MHC binding, purified MHC/direct/fluorescence; filed as Kd, often an IC50 or EC50 that approximates it; bounds were set here for any values at or beyond the usual limits of such assays
- Run conditions: source organism: Clostridium botulinum
Endpoint name: Kd (nM)
Kindly answer with a numeric value in nM, unit omitted.

Inquiry: I am curious: what Kd value has been reported for RVYINVVVK ?
Reply text: 484

====

- Target: HLA-B*07:02
- Measurement protocol: IEDB peptide-MHC binding, purified MHC/direct/fluorescence; filed as Kd, often an IC50 or EC50 that approximates it; bounds were set here for any values at or beyond the usual limits of such assays
- Run conditions: source organism: Lake Victoria marburgvirus - Popp
pKd: −log10 of the molar value.
Endpoint name: pKd

Inquiry: I am curious: what pKd value has been reported for GELRKAICL ?
Reply text: ≤ 4.70

Hello, the source for this data is the Immune Epitope Database (IEDB), in case you need it.
